Molecular target: Aurora-2 (Homo sapiens)
Sequence (O14965 1-403): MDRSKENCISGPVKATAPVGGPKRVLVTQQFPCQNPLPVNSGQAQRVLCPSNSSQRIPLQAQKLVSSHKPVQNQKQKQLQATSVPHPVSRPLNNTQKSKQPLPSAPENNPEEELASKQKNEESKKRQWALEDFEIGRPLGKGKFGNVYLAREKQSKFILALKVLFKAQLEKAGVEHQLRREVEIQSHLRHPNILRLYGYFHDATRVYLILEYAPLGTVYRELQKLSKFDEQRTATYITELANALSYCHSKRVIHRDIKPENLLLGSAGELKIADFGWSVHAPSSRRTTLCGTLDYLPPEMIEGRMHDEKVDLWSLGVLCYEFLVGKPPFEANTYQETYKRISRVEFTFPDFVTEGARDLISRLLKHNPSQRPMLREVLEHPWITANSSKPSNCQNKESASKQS
pKi: −log10 of the molar value.
# pKi per record follows

compound: CCC(=O)N1CCCN(c2cc(-n3cnc(Nc4ccccc4)n3)ccn2)CC1 [Compound I-67]
pKi: 6.00 to 7.00
//
compound: CC(=O)N1[C@H](C)CN(c2cc(-n3cnc(Nc4ccc(NC(=O)N(C)C)cc4)n3)ccn2)C[C@@H]1C [Compound I-77]
pKi: > 7.00
//
compound: c1ccc(-n2cnc(Nc3ccnc(N4CCOCC4)c3)n2)cc1 [Compound I-105]
pKi: 6.00 to 7.00
//
compound: c1ccc(Nc2ncn(-c3cc(N[C@H]4CCCNC4)ncn3)n2)cc1 [Compound I-103]
pKi: 6.00 to 7.00
//
compound: CCOc1cccc(Nc2ncn(-c3ccccc3)n2)c1 [Compound I-45]
pKi: < 6.00
//
compound: COc1cc(Nc2ncn(-c3ccc(C#N)cc3)n2)cc(OC)c1OC [Compound I-43]
pKi: 6.00 to 7.00
//
compound: CC(C)Oc1cccc(Nc2ncn(-c3ccccc3)n2)c1 [Compound I-46]
pKi: < 6.00
//
compound: N#CCC(=O)N1CCCN(c2cc(-n3cnc(Nc4ccccc4)n3)ccn2)CC1 [Compound I-72]
pKi: 6.00 to 7.00

Alright, here's another compound for you.
Report pKi for CC(=O)N1[C@H](C)CN(c2cc(-n3cnc(Nc4ccc(NC(=O)OC(C)C)cc4)n3)ccn2)C[C@@H]1C [Compound I-89] tested on Aurora-2 (Homo sapiens). > 7.00

* * *

Quick reference for Ki among some compounds
Biological target: CDK-2/Cyclin A (Homo sapiens, UniProt P24941)
Construct: 25 nM CDK-2/Cyclin A
Assay: Inhibition of CDK-2, coupled enzyme assay
Settings: 100 μM ATP, 30° C.

compound: O=C(CC1CCCC1)Nc1cc(-n2cnc(Nc3ccccc3)n2)ccn1 [Compound I-94]
recorded.value: > 1000 nM
//
compound: CCCOC(=O)Nc1ccc(Nc2ncn(-c3ccnc(N4C[C@@H](C)N(C(C)=O)[C@@H](C)C4)c3)n2)cc1 [Compound I-88]
recorded.value: < 500 nM
//
compound: c1ccc(Nc2ncn(-c3ccnc(NC4CCCCC4)c3)n2)cc1 [Compound I-50]
recorded.value: < 500 nM
//
compound: COCC(=O)N1CCCN(c2cc(-n3cnc(Nc4ccccc4)n3)ccn2)CC1 [Compound I-71]
recorded.value: > 1000 nM
//
compound: CCOC(=O)c1ccc(Nc2ncn(-c3ccnc(N4CCCN(C(C)=O)CC4)c3)n2)cc1 [Compound I-76]
recorded.value: > 1000 nM

Please report the recorded Ki for c1ccc(-n2cnc(Nc3ccc(N4CCOCC4)cc3)n2)cc1 [Compound I-106] . > 1000 nM

Could you tell me which Ki is on file for c1ccc(-n2cnc(Nc3ccnc(N4CCOCC4)c3)n2)cc1 [Compound I-105] ? 500 to 1000 nM

Recorded Ki of CCCNC(=O)Nc1ccc(Nc2ncn(-c3ccnc(N4C[C@@H](C)N(C(C)=O)[C@@H](C)C4)c3)n2)cc1 [Compound I-99] , please. < 500 nM

Which Ki value belongs to CC(=O)N1CCCN(c2cc(-n3cnc(Nc4ccccc4)n3)ccn2)CC1 [Compound I-66] ? 500 to 1000 nM

Ki lookup needed for CC(=O)N1[C@H](C)CN(c2cc(-n3cnc(Nc4ccc(N)cc4)n3)ccn2)C[C@@H]1C [Compound I-82] , thanks. < 500 nM

Look up Ki for this compound: c1ccc(Nc2ncn(-c3ccnc(N4CCCCCCC4)c3)n2)cc1 [Compound I-52] < 500 nM

Which Ki value belongs to O=C(Nc1cc(-n2cnc(Nc3ccccc3)n2)ccn1)C1CCCCC1 [Compound I-93] ? 500 to 1000 nM

Which value of Ki has been reported for COC(=O)Nc1ccc(Nc2ncn(-c3ccnc(N4C[C@@H](C)N(C(C)=O)[C@@H](C)C4)c3)n2)cc1 [Compound I-78] in the records? < 500 nM

Which measured Ki value corresponds to CCCC(=O)N1CCCN(c2cc(-n3cnc(Nc4ccccc4)n3)ccn2)CC1 [Compound I-68] ? > 1000 nM

* * *

Target: CDK-2/Cyclin A (Homo sapiens, UniProt P24941)
Construct: 25 nM CDK-2/Cyclin A
Test: Inhibition of CDK-2, coupled enzyme assay
Details: 100 μM ATP, 30° C.
observable: Ki

Examples from the recorded data:
molecule: O=C(C1CCCO1)N1CCN(c2cc(-n3cnc(Nc4ccccc4)n3)ccn2)CC1 (centres unmarked)
Ki: > 1000 nM
//
molecule: c1ccc(Nc2ncn(-c3ccnc(N4CCCCCC4)c3)n2)cc1
Ki: < 500 nM

Item CCN(CC)CCNc1cc(-n2cnc(Nc3ccccc3)n2)ccn1 with CDK-2/Cyclin A (Homo sapiens, UniProt P24941) - Ki? > 1000 nM

Please tell me: Ki of CN1C(C)(C)CC(Nc2cc(-n3cnc(Nc4ccccc4)n3)ccn2)CC1(C)C , system CDK-2/Cyclin A (Homo sapiens, UniProt P24941)? 500 to 1000 nM

Please provide the recorded Ki for CC(=O)N1[C@H](C)CN(c2cc(-n3cnc(Nc4ccc(NC(=O)c5cccs5)cc4)n3)ccn2)C[C@@H]1C , tested on CDK-2/Cyclin A (Homo sapiens, UniProt P24941). < 500 nM

What is its Ki for CDK-2/Cyclin A (Homo sapiens, UniProt P24941)? Entry: CN1CCN(c2ccc(Nc3ncn(-c4ccccc4)n3)cn2)CC1 > 1000 nM

Entry CN(Cc1ccccc1)c1cc(-n2cnc(Nc3ccccc3)n2)ccn1 , system CDK-2/Cyclin A (Homo sapiens, UniProt P24941): what Ki was measured? < 500 nM

Lab request: please report Ki under test system CDK-2/Cyclin A (Homo sapiens, UniProt P24941) for CN(C)CCCN(C)c1cc(-n2cnc(Nc3ccccc3)n2)ccn1 > 1000 nM

Query the reported Ki for CDK-2/Cyclin A (Homo sapiens, UniProt P24941); item: OC[C@H]1CCCN(c2cc(-n3cnc(Nc4ccccc4)n3)ccn2)C1 < 500 nM

For CDK-2/Cyclin A (Homo sapiens, UniProt P24941), provide Ki of O=C(Cc1ccccc1)Nc1cc(-n2cnc(Nc3ccccc3)n2)ccn1 please. < 500 nM

* * *

Biological target: FLT-3 (Homo sapiens)
Construct: 0.02% BSA and 3 nM FLT-3
Sequence (P36888 27-993): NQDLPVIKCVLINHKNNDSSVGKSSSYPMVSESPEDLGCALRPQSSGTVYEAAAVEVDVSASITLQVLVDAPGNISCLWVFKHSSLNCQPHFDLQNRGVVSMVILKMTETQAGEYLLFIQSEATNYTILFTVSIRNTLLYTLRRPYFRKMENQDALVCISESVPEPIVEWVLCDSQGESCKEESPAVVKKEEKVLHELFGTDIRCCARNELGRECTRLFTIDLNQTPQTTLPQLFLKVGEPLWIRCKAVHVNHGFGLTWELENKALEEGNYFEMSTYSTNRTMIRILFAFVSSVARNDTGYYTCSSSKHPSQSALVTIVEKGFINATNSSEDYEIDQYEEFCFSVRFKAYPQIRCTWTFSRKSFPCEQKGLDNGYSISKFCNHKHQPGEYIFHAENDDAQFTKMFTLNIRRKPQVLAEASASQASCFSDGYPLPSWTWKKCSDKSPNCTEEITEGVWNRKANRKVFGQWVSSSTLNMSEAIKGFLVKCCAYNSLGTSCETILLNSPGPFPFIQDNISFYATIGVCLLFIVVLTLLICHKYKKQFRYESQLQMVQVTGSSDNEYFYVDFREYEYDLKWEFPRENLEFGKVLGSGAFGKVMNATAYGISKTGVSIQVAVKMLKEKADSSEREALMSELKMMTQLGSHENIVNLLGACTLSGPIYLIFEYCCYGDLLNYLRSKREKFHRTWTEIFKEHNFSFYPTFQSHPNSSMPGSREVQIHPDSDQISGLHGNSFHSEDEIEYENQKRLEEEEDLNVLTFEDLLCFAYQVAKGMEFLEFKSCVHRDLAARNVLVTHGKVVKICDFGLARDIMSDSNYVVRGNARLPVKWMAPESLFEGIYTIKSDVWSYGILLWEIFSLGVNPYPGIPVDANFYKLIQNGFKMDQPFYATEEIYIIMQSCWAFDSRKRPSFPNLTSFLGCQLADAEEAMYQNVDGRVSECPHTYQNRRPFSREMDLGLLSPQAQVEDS
Assay: Inhibition of FLT-3, radiometric filter-binding assay
Type: biochemical
Settings: 90 μM ATP, pE4Y substrate; read-out: Ki values (FLT-3)
pKi: −log10 of the molar value.
observable: pKi

smiles.str: COC(=O)Nc1ccc(Nc2ncn(-c3ccnc(N4C[C@@H](C)N(C(C)=O)[C@@H](C)C4)c3)n2)cc1
recorded.value: > 7.22
//
smiles.str: N#CCC(=O)N1CCCN(c2cc(-n3cnc(Nc4ccccc4)n3)ccn2)CC1
recorded.value: > 7.22
//
smiles.str: O=C(CCc1ccccc1)Nc1cc(-n2cnc(Nc3ccccc3)n2)ccn1
recorded.value: 7.52 to 9.00
//
smiles.str: CC(=O)N1[C@H](C)CN(c2cc(-n3cnc(Nc4ccccc4)n3)ccn2)C[C@@H]1C
recorded.value: > 7.22
//
smiles.str: CC(C)C(=O)N1CCCN(c2cc(-n3cnc(Nc4ccccc4)n3)ccn2)CC1
recorded.value: 6.70 to 7.52
//
smiles.str: c1ccc(-n2cnc(Nc3ccc(N4CCOCC4)cc3)n2)cc1
recorded.value: 6.70 to 7.52

Next item in the queue.
Fill blank: measured pKi of the compound CC(C)Oc1cccc(Nc2ncn(-c3ccccc3)n2)c1 is ____. 7.52 to 9.00

* * *

pKi, JAK-3 (Homo sapiens): measured values
pKi: −log10 of the molar value.

smiles.str: CC(=O)N1[C@H](C)CN(c2cc(-n3cnc(Nc4ccc(NC(=O)OCC(C)C)cc4)n3)ccn2)C[C@@H]1C
recorded.value: 6.00 to 8.00

smiles.str: O=C(Cc1ccccc1)Nc1cc(-n2cnc(Nc3ccccc3)n2)ccn1
recorded.value: < 6.00

smiles.str: CC(=O)N1[C@H](C)CN(c2cc(-n3cnc(Nc4ccc(NC(=O)c5ccco5)cc4)n3)ccn2)C[C@@H]1C
recorded.value: 6.00 to 8.00

smiles.str: CC(=O)N1[C@H](C)CN(c2cc(-n3cnc(Nc4ccc(N)cc4)n3)ccn2)C[C@@H]1C
recorded.value: > 8.00

smiles.str: CCOc1ccc(Nc2ncn(-c3ccccc3)n2)cc1
recorded.value: < 6.00

Look up pKi for this compound: N#CCC(=O)N1CCCN(c2cc(-n3cnc(Nc4ccccc4)n3)ccn2)CC1 6.00 to 8.00

Given CCOC(=O)c1ccc(Nc2ncn(-c3ccnc(N4CCCN(C(C)=O)CC4)c3)n2)cc1 , state its recorded pKi. 6.00 to 8.00

Would you mind telling me what pKi value was observed for c1ccc(-n2cnc(Nc3ccc(N4CCOCC4)cc3)n2)cc1 ? 6.00 to 8.00

I would be grateful if you could share the reported pKi for c1ccc(-n2cnc(Nc3ccnc(N4CCOCC4)c3)n2)cc1 . 6.00 to 8.00

Could you share which pKi value was measured for CN(Cc1cccnc1)c1cc(-n2cnc(Nc3ccccc3)n2)ccn1 ? 6.00 to 8.00

Item CC(=O)N1[C@H](C)CN(c2cc(-n3cnc(Nc4ccc(NC(=O)N(C)C)cc4)n3)ccn2)C[C@@H]1C has what recorded pKi? 6.00 to 8.00

Fill in: pKi of CN(c1cc(-n2cnc(Nc3ccccc3)n2)ccn1)C1CCCCC1 is ___ < 6.00

Give its pKi value. Item: OC[C@H]1CCCN(c2cc(-n3cnc(Nc4ccccc4)n3)ccn2)C1 6.00 to 8.00

Attribution: patent US7598245B2
